# credit: patent EP4793271A1

molecular target: hSARM1 (Homo sapiens, UniProt Q6SZW1); experiment: Human SARM1 activity measurement in HEK293 cells transiently transfected with ΔN-hSARM1 (PC6 fluorescent probe); assay type: cell-based; set-up: expressed in transfected cells; host or cells: HEK293, pcDNA3 expression vector; details: inhibition rate; compound 30 µM; PC6 50 µM; HEK293 cells expressing ΔN-hSARM1; approximately 48 hours from transfection; read-out: Evaluation on hSARM1 inhibitory
Sequence (Q6SZW1 28-724): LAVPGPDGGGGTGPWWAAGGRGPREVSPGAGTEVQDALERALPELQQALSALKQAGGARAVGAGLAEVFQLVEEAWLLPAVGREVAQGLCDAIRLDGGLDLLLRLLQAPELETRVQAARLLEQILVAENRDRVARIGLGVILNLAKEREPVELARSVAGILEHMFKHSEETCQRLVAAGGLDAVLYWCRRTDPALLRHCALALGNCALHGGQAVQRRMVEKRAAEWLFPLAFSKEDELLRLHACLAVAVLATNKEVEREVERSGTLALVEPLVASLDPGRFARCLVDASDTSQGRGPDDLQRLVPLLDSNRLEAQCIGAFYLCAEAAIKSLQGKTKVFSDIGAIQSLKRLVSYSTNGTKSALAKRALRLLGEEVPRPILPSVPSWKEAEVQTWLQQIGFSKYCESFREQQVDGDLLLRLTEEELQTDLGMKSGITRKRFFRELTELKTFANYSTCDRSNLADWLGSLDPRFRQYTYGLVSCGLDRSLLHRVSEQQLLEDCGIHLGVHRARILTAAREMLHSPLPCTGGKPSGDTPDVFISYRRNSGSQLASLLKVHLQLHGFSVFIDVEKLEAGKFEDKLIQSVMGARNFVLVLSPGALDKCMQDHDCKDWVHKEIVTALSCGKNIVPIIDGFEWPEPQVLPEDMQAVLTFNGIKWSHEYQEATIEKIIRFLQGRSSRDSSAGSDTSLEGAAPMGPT
This listing pairs compounds with measured inhibition at 30 µM.

| COMPOUND | inhibition at 30 µM |
| --- | --- |
| CC#CC(=O)Nc1ccc(CNC(=O)c2cccnc2)cn1 [Compound 183] | > 50% |
| O=C(/C=C/c1cccnc1)Nc1cccc(NC(=O)/C=C/c2cccnc2)n1 [compound 59] | > 25% |

// query Consider the compound COCOc1cccc(OCCOCCNC(=O)c2cccnc2)c1 [compound 30] . State its measured inhibition at 30 µM.
// result > 50%

// query Consider the compound O=C(/C=C/c1ccc(C(F)(F)F)cc1)Nc1ccc(CNC(=O)c2cccnc2)cn1 [Compound 167] . State its measured inhibition at 30 µM.
// result > 75%

// query Consider the compound O=C(NCCCCCCCCOCCOCCO)c1cccnc1 [compound 6] . State its measured inhibition at 30 µM.
// result > 75%

// query Consider the compound O=C(Cc1ccc(Cl)cc1)Nc1ccc(CNC(=O)c2cccnc2)cn1 [Compound 145] . State its measured inhibition at 30 µM.
// result > 75%

// query Consider the compound O=C(COc1ccc(C(F)(F)F)cc1)Nc1ccc(CNC(=O)c2cccnc2)cn1 [Compound 176] . State its measured inhibition at 30 µM.
// result > 75%

// query Consider the compound N#Cc1ccc(CCC(=O)Nc2ccc(CNC(=O)c3cccnc3)cn2)cc1 [Compound 173] . State its measured inhibition at 30 µM.
// result > 75%

// query Consider the compound O=C(NCc1ccc(NC(=O)c2ccccc2OC(F)(F)F)nc1)c1cccnc1 [compound 85] . State its measured inhibition at 30 µM.
// result > 75%
